target.or.system: DNMT3B-3L complex (Homo sapiens, UniProt Q9UBC3)
experiment.notes: Intrinsic tryptophan fluorescence spectroscopy titration
parameter.measured: pKd
Numbers only, as −log10 of the molar value.

Record request: pKd value, item `COc1ccc2c(c1)[nH]c1c(C)nccc12`
5.46
